System Under Test: ParB(E78Q) (Bacillus subtilis, UniProt P26497, E78Q)
Construct: full-length, untagged
Sequence (P26497 whole entry E78Q): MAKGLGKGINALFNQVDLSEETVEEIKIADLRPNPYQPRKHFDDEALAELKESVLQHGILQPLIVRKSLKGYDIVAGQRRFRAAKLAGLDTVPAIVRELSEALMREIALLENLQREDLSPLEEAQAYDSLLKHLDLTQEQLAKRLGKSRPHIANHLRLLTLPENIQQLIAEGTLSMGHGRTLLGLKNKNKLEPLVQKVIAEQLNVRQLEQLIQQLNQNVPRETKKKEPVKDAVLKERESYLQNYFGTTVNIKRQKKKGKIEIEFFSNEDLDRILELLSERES
Measurement Protocol: ITC; also N-gate cross-linking and BLI DNA loading; no appreciable hydrolysis
pKd: −log10 of the molar value.
Experimental Readout: pKd

[[record]]
compound = "Nc1ccn([C@@H]2O[C@H](COP(=O)(O)OP(=O)(O)OP(=O)(O)O)[C@@H](O)[C@H]2O)c(=O)n1 [CTP]"
result = "5.10 to 5.30"


Reference for the values: paper PMC8494293
